- study-target: DRB1*0401 (DR4w4) (Homo sapiens, UniProt P01903+P01911, A100K/A169T/F76Y/I96L/K127E/L162R/M171V/N62H/P40V/Q125Y/R42H/S133A/S149N/S66Y/V115G/V209L/W38E)
- measurement-description: HLA class II peptide binding assay, purified HLA
- condition-context: Table XIX, DR supermotif peptides; unit not given
Documented DR4w4 binding data across a set of molecules
// response body must contain only the number

Take a look at these entries with their results.
// DR4w4 binding data lookup, key: `CC[C@H](C)[C@H](NC(=O)CNC(=O)[C@H](CC(=O)O)NC(=O)[C@H](Cc1ccc(O)cc1)NC(=O)[C@@H]1CCCN1C(=O)[C@H](CCCCN)NC(=O)[C@H](C)NC(=O)CNC(=O)[C@H](Cc1ccccc1)NC(=O)[C@@H](NC(=O)[C@H](CCSC)NC(=O)[C@H](CC(C)C)NC(=O)[C@H](CCC(=O)O)NC(=O)[C@H](Cc1c[nH]c2ccccc12)NC(=O)[C@@H](N)C(C)C)[C@@H](C)O)C(=O)O`
0.0550

Entry `CC[C@H](C)[C@H](NC(=O)[C@H](CCC(=O)O)NC(=O)[C@@H](N)CCCCN)C(=O)N[C@@H](CC(C)C)C(=O)N[C@@H](CC(=O)O)C(=O)N[C@@H](CCC(=O)O)C(=O)N[C@@H](C)C(=O)N[C@@H](Cc1ccc(O)cc1)C(=O)N[C@H](C(=O)N[C@@H](CCSC)C(=O)N[C@@H](C)C(=O)NCC(=O)N[C@H](C(=O)NCC(=O)N[C@@H](CO)C(=O)O)C(C)C)C(C)C` please
0.0073

Others:
// DR4w4 binding data lookup, key: `CSCC[C@H](NC(=O)[C@@H](NC(=O)[C@H](Cc1ccc(O)cc1)NC(=O)[C@H](C)NC(=O)[C@H](CCC(=O)O)NC(=O)[C@@H](N)CC(=O)O)C(C)C)C(=O)N[C@@H](C)C(=O)NCC(=O)N[C@H](C(=O)NCC(=O)N[C@@H](CO)C(=O)N1CCC[C@H]1C(=O)N[C@@H](Cc1ccc(O)cc1)C(=O)N[C@H](C(=O)N[C@@H](CO)C(=O)O)C(C)C)C(C)C`
0.2300

These measurements were taken from patent US20040121946A9.
